Assay: Approximate solubility of freebase Compound A in 16 solvents at RT
Format: physicochemical
Conditions: organic solvent or mixture, 2-propanol
Procedure: Polymorph Screening. The solubility of freebase Compound A was estimated in 16 solvents at RT. (Table 8). Polymorph screening experiments were performed using different solution crystallization or solid phase transition methods.
MEASURED PARAMETER: solubility

>>> data_value("C[C@@H]1Cc2c([nH]c3ccccc23)[C@@H](c2c(F)cc(NC3CN(CCCF)C3)cc2F)N1CC(F)(F)CO [Compound A]")
"> 60 mg/mL"

###

Test: Approximate solubility of Compound B Form B material in 20 solvents at RT
Type: physicochemical
Details: organic solvent or mixture, thermodynamic from solid, 1,4-Dioxane
Counter-ions that a name gives are not always drawn.
MEASURED PARAMETER: solubility

>>> data_value("C[C@@H]1Cc2c([nH]c3ccccc23)[C@@H](c2c(F)cc(NC3CN(CCCF)C3)cc2F)N1CC(F)(F)CO [Compound B, tartrate]")
"< 2200 µg/mL"
